Origin of measurements: ChEMBL document CHEMBL3046050

- System: Bacillus subtilis
- Protocol Notes: Antimicrobial activity against Bacillus subtilis at 20 ug/ml after 24 hr by disk diffusion method
- Assay type: functional
- Particulars: read-out: IZ
Measurement Kind: zone of inhibition at 20 µg/mL (mm)
Report the value in mm with no unit label.

Data point: COc1ccccc1N1C(c2ccccc2)C12C(c1ccccc1)=Nc1ccccc12 (configuration not stated) ; zone of inhibition at 20 µg/mL = 23

Data point: Clc1cccc(N2C(c3ccccc3)C23C(c2ccccc2)=Nc2ccccc23)c1 (configuration not stated) ; zone of inhibition at 20 µg/mL = 15.5

Data point: CC1(C)S[C@@H]2[C@H](NC(=O)[C@H](N)c3ccccc3)C(=O)N2[C@H]1C(=O)O ; zone of inhibition at 20 µg/mL = 9.3

Data point: CCOc1cccc(N2C(c3ccccc3)C23C(c2ccccc2)=Nc2ccccc23)c1 (configuration not stated) ; zone of inhibition at 20 µg/mL = 24.5

Data point: O=[N+]([O-])c1ccccc1N1C(c2ccccc2)C12C(c1ccccc1)=Nc1ccccc12 (configuration not stated) ; zone of inhibition at 20 µg/mL = 19.3

Data point: Clc1ccccc1N1C(c2ccccc2)C12C(c1ccccc1)=Nc1ccccc12 (configuration not stated) ; zone of inhibition at 20 µg/mL = 16.3

Data point: Clc1ccc(N2C(c3ccccc3)C23C(c2ccccc2)=Nc2ccccc23)cc1 (configuration not stated) ; zone of inhibition at 20 µg/mL = 7.3

Data point: Oc1ccc(N2C(c3ccccc3)C23C(c2ccccc2)=Nc2ccccc23)cc1 (configuration not stated) ; zone of inhibition at 20 µg/mL = 5.5

Data point: O=[N+]([O-])c1ccc(N2C(c3ccccc3)C23C(c2ccccc2)=Nc2ccccc23)cc1 (configuration not stated) ; zone of inhibition at 20 µg/mL = 8.3

Data point: Oc1ccccc1N1C(c2ccccc2)C12C(c1ccccc1)=Nc1ccccc12 (configuration not stated) ; zone of inhibition at 20 µg/mL = 12.7

Data point: Cc1cccc(N2C(c3ccccc3)C23C(c2ccccc2)=Nc2ccccc23)c1 (configuration not stated) ; zone of inhibition at 20 µg/mL = 14.5

Data point: CCOc1ccccc1N1C(c2ccccc2)C12C(c1ccccc1)=Nc1ccccc12 (configuration not stated) ; zone of inhibition at 20 µg/mL = 25.7

Data point: COc1cccc(N2C(c3ccccc3)C23C(c2ccccc2)=Nc2ccccc23)c1 (configuration not stated) ; zone of inhibition at 20 µg/mL = 21.5

Data point: c1ccc(C2=Nc3ccccc3C23C(c2ccccc2)N3c2ccccc2)cc1 (configuration not stated) ; zone of inhibition at 20 µg/mL = 10.2

Data point: Oc1cccc(N2C(c3ccccc3)C23C(c2ccccc2)=Nc2ccccc23)c1 (configuration not stated) ; zone of inhibition at 20 µg/mL = 11.5

Data point: O=C(O)c1ccccc1N1C(c2ccccc2)C12C(c1ccccc1)=Nc1ccccc12 (configuration not stated) ; zone of inhibition at 20 µg/mL = 3.3

Data point: O=[N+]([O-])c1cccc(N2C(c3ccccc3)C23C(c2ccccc2)=Nc2ccccc23)c1 (configuration not stated) ; zone of inhibition at 20 µg/mL = 17.2
